Test system: KM12 colon
assay: NCI tumour cell line growth inhibition, 48 h; in the data active = GI50 below about 0.43 µM; inactive = the rest
Outcomes: t = active, f = inactive

# compound, class
measured = [
    ("O=C(Nc1ccc(Cl)cc1)Nc1ccc(Cl)c(C(F)(F)F)c1", "f"),
    ("O=c1ccccc(-c2ccc(Br)cc2)c1O", "f"),
    ("COc1cc(-c2nn(-c3cccc(NC(=O)Nc4cccc(C(F)(F)F)c4)c3)cc2-c2ccncc2)ccc1Cl", "t"),
    ("COc1ccc(/C=C/C2C(C#N)=C(N)OC3=C2C(=O)CCC3)cc1 (stereo not drawn)", "f"),
    ("COc1cccc2c1O/C(=C\\c1ncc([N+](=O)[O-])n1C)C2=O", "t"),
    ("COc1ccc2c(c1OC)-c1c(c3ccc([N+](=O)[O-])cc3c(=O)n1CCCN)C2=O", "f"),
    ("COc1cc2c3c(n(CCCNC4=NCCS4)c(=O)c2cc1OC)-c1cc2c(cc1C3=O)OCO2", "f"),
    ("C#CC[C@@H]1C[C@]2(C)[C@H]3CC[C@@H]4[C@H]5C(C(=C)C)CC[C@]5(C(=O)NCCCCN)CC[C@@]4(C)[C@]3(C)CC[C@H]2C(C)(C)[C@H]1OC(C)=O (stereo partly drawn)", "f"),
    ("CCCN1C/C(=C\\c2ccc(O)c(OC)c2)C(=O)/C(=C/c2ccc(O)c(OC)c2)C1", "f"),
    ("O=C1/C=C/[C@@H](O)[C@@H]2C[C@@H](O)C[C@H]2/C=C/CCC[C@H](CCc2ccccc2)O1", "t"),
    ("C=C1C(O)C2C(=C(CCC3CC3)C13CC3)C(=O)C(C)(C)C2O (stereo not drawn)", "f"),
    ("O=C(CN(/C=C/C(=O)C(F)(F)F)c1ccc(Cl)cc1)c1ccc(F)cc1", "f"),
    ("Nc1nc2cc(O)ccc2n2cc3c(F)cccc3c12", "f"),
]

The measured values listed here are drawn from PubChem BioAssay (NCI).
